Measured values drawn from PubChem BioAssay AID1963964 for this set.

Test system: 997726-040-R-J2-PDC tumor spheroids, viability
Assay: Anticancer human tumor 997726-040-R-J2-PDC patient-derived squamous cell lung carcinoma cell line growth inhibition [PI3K]
Conditions: second compound 1 µM; first compound 0.1 µM; stronger effect = lower value; spheroids with HUVEC and MSC
Record form. Attribute: viability, T/C. Fill in for each entry.

C=CC(=O)N1CCN(c2nc(=O)n(-c3c(C)ccnc3C(C)C)c3nc(-c4c(O)cccc4F)c(F)cc23)C(C)C1 (stereo not drawn) + CC(Nc1ncnc2nc[nH]c12)c1cc2cccc(Cl)c2c(=O)n1-c1ccccc1; 86.4%
CCCS(=O)(=O)Nc1ccc(F)c(C(=O)c2c[nH]c3ncc(-c4ccc(Cl)cc4)cc23)c1F + CC(Nc1ncnc2nc[nH]c12)c1cc2cccc(Cl)c2c(=O)n1-c1ccccc1; 95.5%

Shift focus to the following entry.
Problem: Which viability, T/C is listed for C#Cc1c(F)ccc2cc(O)cc(-c3ncc4c(N5CC6CCC(C5)N6)nc(OCC56CCCN5CC(F)C6)nc4c3F)c12 (stereo not drawn) + CC(Nc1ncnc2nc[nH]c12)c1cc2cccc(Cl)c2c(=O)n1-c1ccccc1 ?
Solution: 93.8%

----------
System: 997726-040-R-J2-PDC tumor spheroids, viability
Test: Anticancer human tumor 997726-040-R-J2-PDC cell line growth inhibition [PI3K];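 note: spheroids exposed to compounds for seven days before readout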
Conditions: curve of first compound; second compound 0.00316 µM; spheroids with HUVEC and MSC
pIC50: −log10 of the molar value.
metric name: pIC50

Cn1cnc2c(F)c(Nc3ccc(Br)cc3Cl)c(C(=O)NOCCO)cc21 + COc1c(OCCCN2CCOCC2)ccc2c3n(c(=NC(=O)c4cnc(N)nc4)nc12)CCN3; 7.34

Record pIC50 per entry; entries follow.
1. CC1(C)CCC(Nc2ncc(C(F)(F)F)c(-c3c[nH]c4c(P(C)(C)=O)c(C#N)ccc34)n2)CN1 (stereo not given) + CC(Nc1ccc2c(c1)OCCn1cc(N3C(=O)OCC3C(F)F)nc1-2)C(N)=O
2. CC(Cn1ccc(-c2ccc(C#N)c(Cl)c2)n1)NC(=O)c1cc(C(C)O)[nH]n1 (stereo not given) + COc1c(OCCCN2CCOCC2)ccc2c3n(c(=NC(=O)c4cnc(N)nc4)nc12)CCN3
3. C[C@@H](NC(=O)c1ncnc(N)c1Cl)c1ncc(C(=O)Nc2cc(C(F)(F)F)c(Cl)cn2)s1 + COc1c(OCCCN2CCOCC2)ccc2c3n(c(=NC(=O)c4cnc(N)nc4)nc12)CCN3

Solution:
1. > 7.50
2. < 5.00
3. < 5.00

Consider the following items and state reported pIC50 for each.
1. C=CC(=O)N1CCN(c2nc(=O)n(-c3c(C)ccnc3C(C)C)c3nc(-c4c(O)cccc4F)c(F)cc23)C(C)C1 (stereo not given) + COc1c(OCCCN2CCOCC2)ccc2c3n(c(=NC(=O)c4cnc(N)nc4)nc12)CCN3
2. Cn1ncnc1[C@H]1c2n[nH]c(=O)c3cc(F)cc(c23)N[C@@H]1c1ccc(F)cc1 + COc1c(OCCCN2CCOCC2)ccc2c3n(c(=NC(=O)c4cnc(N)nc4)nc12)CCN3
3. CC1(C)CCC(CN2CCN(c3ccc(C(=O)NS(=O)(=O)c4ccc(NCC5CCOCC5)c([N+](=O)[O-])c4)c(Oc4cnc5[nH]ccc5c4)c3)CC2)=C(c2ccc(Cl)cc2)C1 + COc1c(OCCCN2CCOCC2)ccc2c3n(c(=NC(=O)c4cnc(N)nc4)nc12)CCN3
4. CCN1CCN(Cc2ccc(Nc3ncc(F)c(-c4cc(F)c5nc(C)n(C(C)C)c5c4)n3)nc2)CC1 + CC(Nc1ccc2c(c1)OCCn1cc(N3C(=O)OCC3C(F)F)nc1-2)C(N)=O

Solution:
< 5.00
< 7.00
5.16
< 6.00

Give pIC50 for each listed item.
1. C=CC(=O)N1CCN(c2nc(=O)n(-c3c(C)ccnc3C(C)C)c3nc(-c4c(O)cccc4F)c(F)cc23)C(C)C1 (stereo not given) + CC(Nc1ccc2c(c1)OCCn1cc(N3C(=O)OCC3C(F)F)nc1-2)C(N)=O
2. CNC(=O)c1ccc(N2C(=S)N(c3ccc(C#N)c(C(F)(F)F)c3)C(=O)C2(C)C)cc1F + CC(Nc1ccc2c(c1)OCCn1cc(N3C(=O)OCC3C(F)F)nc1-2)C(N)=O

Solution:
1. < 5.00
2. < 5.00

----------
System: 997726-040-R-J2-PDC tumor spheroids, viability
Assay: Anticancer human tumor 997726-040-R-J2-PDC cell line growth inhibition [PI3K]; active means viability on the fitted dose curve at most 10% of control; inactive means the rest;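 note: spheroids exposed to compounds for seven days before readout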
Settings: second compound 0.0316 µM; first compound 3.16 µM; spheroids with HUVEC and MSC
Tick one outcome: active, inactive

CC(C)NCC(C(=O)N1CCN(c2ncnc3c2C(C)CC3O)CC1)c1ccc(Cl)cc1 (stereo unspecified) + CC(Nc1ncnc2nc[nH]c12)c1cc2cccc(Cl)c2c(=O)n1-c1ccccc1; inactive

Problem: Recorded test call requested for Cn1nccc1Nc1nccc(-c2ccn(C(CO)c3ccc(Cl)c(F)c3)c(=O)c2)n1 (stereo unspecified) + Cc1nc(NC(=O)N2CCCC2C(N)=O)sc1-c1ccnc(C(C)(C)C(F)(F)F)c1
Solution: inactive

Problem: Please state the recorded outcome for this molecule: CNC(=O)c1ccc(N2C(=S)N(c3ccc(C#N)c(C(F)(F)F)c3)C(=O)C2(C)C)cc1F + COc1c(OCCCN2CCOCC2)ccc2c3n(c(=NC(=O)c4cnc(N)nc4)nc12)CCN3
Solution: inactive

Problem: Could you please tell me the result logged for C#Cc1c(F)ccc2cc(O)cc(-c3ncc4c(N5CC6CCC(C5)N6)nc(OCC56CCCN5CC(F)C6)nc4c3F)c12 (stereo unspecified) + COc1c(OCCCN2CCOCC2)ccc2c3n(c(=NC(=O)c4cnc(N)nc4)nc12)CCN3 in this assay?
Solution: inactive

Problem: Query: recorded result category for Cn1ncc(Cl)c1-c1cc(C(=O)NC(CN)Cc2cccc(F)c2)sc1Cl (stereo unspecified) + CC(Nc1ccc2c(c1)OCCn1cc(N3C(=O)OCC3C(F)F)nc1-2)C(N)=O in this test
Solution: active

Problem: Given Cn1ncc(Cl)c1-c1cc(C(=O)NC(CN)Cc2cccc(F)c2)sc1Cl (stereo unspecified) + COc1c(OCCCN2CCOCC2)ccc2c3n(c(=NC(=O)c4cnc(N)nc4)nc12)CCN3 , state the outcome it received in this test.
Solution: active

Problem: Call for entry CC1(C)CCC(Nc2ncc(C(F)(F)F)c(-c3c[nH]c4c(P(C)(C)=O)c(C#N)ccc34)n2)CN1 (stereo unspecified) + COc1c(OCCCN2CCOCC2)ccc2c3n(c(=NC(=O)c4cnc(N)nc4)nc12)CCN3 :
Solution: inactive

Problem: State the result this test recorded for CCCS(=O)(=O)Nc1ccc(F)c(C(=O)c2c[nH]c3ncc(-c4ccc(Cl)cc4)cc23)c1F + Cc1nc(NC(=O)N2CCCC2C(N)=O)sc1-c1ccnc(C(C)(C)C(F)(F)F)c1 .
Solution: inactive

Problem: Could you please tell me the result logged for C=CC(=O)N1CCN(c2nc(=O)n(-c3c(C)ccnc3C(C)C)c3nc(-c4c(O)cccc4F)c(F)cc23)C(C)C1 (stereo unspecified) + Cc1nc(NC(=O)N2CCCC2C(N)=O)sc1-c1ccnc(C(C)(C)C(F)(F)F)c1 in this assay?
Solution: inactive

Problem: Just curious, what result did CC1(C)CCC(Nc2ncc(C(F)(F)F)c(-c3c[nH]c4c(P(C)(C)=O)c(C#N)ccc34)n2)CN1 (stereo unspecified) + CC(Nc1ncnc2nc[nH]c12)c1cc2cccc(Cl)c2c(=O)n1-c1ccccc1 get here?
Solution: inactive

Problem: Returns: the outcome recorded for CC1(C)CCC(Nc2ncc(C(F)(F)F)c(-c3c[nH]c4c(P(C)(C)=O)c(C#N)ccc34)n2)CN1 (stereo unspecified) + Cc1nc(NC(=O)N2CCCC2C(N)=O)sc1-c1ccnc(C(C)(C)C(F)(F)F)c1 in this assay.
Solution: inactive

----------
Tested on: 997726-040-R-J2-PDC tumor spheroids, viability
Assay: Anticancer human tumor 997726-040-R-J2-PDC cell line growth inhibition [PI3K];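 note: spheroids exposed to compounds for seven days before readout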
Details: second compound 1 µM; first compound 10 µM; stronger effect = lower value; spheroids with HUVEC and MSC
metric name: viability, T/C (%)
Answers are plain numbers, in %.

Below, each entry is followed by its recorded viability, T/C result.
CC1(C)CCC(CN2CCN(c3ccc(C(=O)NS(=O)(=O)c4ccc(NCC5CCOCC5)c([N+](=O)[O-])c4)c(Oc4cnc5[nH]ccc5c4)c3)CC2)=C(c2ccc(Cl)cc2)C1 + CC(Nc1ccc2c(c1)OCCn1cc(N3C(=O)OCC3C(F)F)nc1-2)C(N)=O; 12.3
CNC(=O)c1ccc(N2C(=S)N(c3ccc(C#N)c(C(F)(F)F)c3)C(=O)C2(C)C)cc1F + Cc1nc(NC(=O)N2CCCC2C(N)=O)sc1-c1ccnc(C(C)(C)C(F)(F)F)c1; 39
CCCS(=O)(=O)Nc1ccc(F)c(C(=O)c2c[nH]c3ncc(-c4ccc(Cl)cc4)cc23)c1F + CC(Nc1ccc2c(c1)OCCn1cc(N3C(=O)OCC3C(F)F)nc1-2)C(N)=O; 16.1

List viability, T/C for every entry below, keeping the order given.
1. Cn1nccc1Nc1nccc(-c2ccn(C(CO)c3ccc(Cl)c(F)c3)c(=O)c2)n1 (stereo not given) + COc1c(OCCCN2CCOCC2)ccc2c3n(c(=NC(=O)c4cnc(N)nc4)nc12)CCN3
2. CC1(C)CCC(Nc2ncc(C(F)(F)F)c(-c3c[nH]c4c(P(C)(C)=O)c(C#N)ccc34)n2)CN1 (stereo not given) + CC(Nc1ccc2c(c1)OCCn1cc(N3C(=O)OCC3C(F)F)nc1-2)C(N)=O

Solution:
[0.31, 1.25]
